System: 653999-131-R-J2-PDC complex spheroids, growth inhibition;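 also: spheroids exposed to the agents for seven days before the readout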
Test: Anticancer human tumor 653999-131-R-J2-PDC patient-derived lung adenocarcinoma cell line growth inhibition [RAS]
Settings: second compound 0.003 µM; first compound 0.0316 µM; active compounds read low
Measurement Type: viability, T/C (%)
Number only, in %; omit the unit.

C=CC(=O)Nc1cc(Nc2nccc(-c3cn(C)c4ccccc34)n2)c(OC)cc1N(C)CCN(C)C + CCn1c(-c2cccnc2C(C)OC)c2c3cc(ccc31)N1CCOC(CC(NC(=O)C(C(C)C)N(C)C(=O)C3(F)CCN(C(=O)C#CC(C)(C)N(C)C)CC3)C(=O)N3CCCC(N3)C(=O)OCC(C)(C)C2)C1	86.3
O=C(c1ccc(F)c(F)c1Nc1ccc(I)cc1F)N1CC(O)([C@@H]2CCCCN2)C1 + CCn1c(-c2cc(N3CCN(C)CC3)cnc2C(C)OC)c2c3cc(ccc31)-c1csc(n1)CC(NC(=O)C1CC1C)C(=O)N1CCCC(N1)C(=O)OCC(C)(C)C2	45.5
O=C(c1ccc(F)c(F)c1Nc1ccc(I)cc1F)N1CC(O)([C@@H]2CCCCN2)C1 + CCn1c(-c2cccnc2C(C)OC)c2c3cc(ccc31)N1CCOC(CC(NC(=O)C(C(C)C)N(C)C(=O)C3(F)CCN(C(=O)C#CC(C)(C)N(C)C)CC3)C(=O)N3CCCC(N3)C(=O)OCC(C)(C)C2)C1	71.3

Now look at this entry.
For the molecule shown here, CC1(O)CCCC1n1c(=O)c(C(F)F)cc2cnc(NC3CCN(S(C)(=O)=O)CC3)nc21 (centres undefined) + CCn1c(-c2cccnc2C(C)OC)c2c3cc(ccc31)N1CCOC(CC(NC(=O)C(C(C)C)N(C)C(=O)C3(F)CCN(C(=O)C#CC(C)(C)N(C)C)CC3)C(=O)N3CCCC(N3)C(=O)OCC(C)(C)C2)C1 , give the reported viability, T/C.
86.8
